Recorded Ki, one value per entry.
# measured_on: Serine protease 1 (Homo sapiens)
# Sequence (P07477 whole entry): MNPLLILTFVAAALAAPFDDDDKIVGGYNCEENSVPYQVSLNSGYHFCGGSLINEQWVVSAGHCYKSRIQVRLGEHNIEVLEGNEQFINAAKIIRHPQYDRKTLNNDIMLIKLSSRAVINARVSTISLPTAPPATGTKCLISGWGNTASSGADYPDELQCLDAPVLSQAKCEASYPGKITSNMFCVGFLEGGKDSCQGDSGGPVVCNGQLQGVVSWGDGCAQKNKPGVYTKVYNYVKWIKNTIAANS

// below: answered compounds
> print(dat)
                                   compound  meas.value
1  COc1cccc(-n2nc(C)cc2C(=O)Nc2ccc(-c3ccccc3S(N)(=O)=O)cc2)c1   > 1500 nM
2  Cc1cc(C(=O)Nc2ccc(-c3ccccc3S(N)(=O)=O)cc2)n(-c2ccccc2)n1   > 1500 nM
3  COc1ccc(-n2nc(C)cc2C(=O)Nc2ccc(-c3ccccc3S(N)(=O)=O)cc2)cc1   > 1500 nM
4  CC(C)NCc1ccccc1-n1nc(C(F)(F)F)cc1C(=O)Nc1ccc(-c2ccccc2S(C)(=O)=O)cc1F   > 2500 nM

Please find the next compound below.
Name the recorded Ki for "Cc1cc(C(=O)Nc2ccc(-c3ccccc3S(N)(=O)=O)cc2)n(-c2ccc(O)cc2)n1" . > 1500 nM

====

# protocol: in vivo
# measurement_parameters: dog, iv
Recorded half-life, one value per entry.
Kindly answer with a numeric value in h, unit omitted.

// below: answered molecules
> print(dat)
                                   compound  property.name  result.units  meas.value
1  NCc1ccccc1-n1nc(C(F)(F)F)cc1C(=O)Nc1ccc(-c2ccccc2S(N)(=O)=O)cc1F      half-life             h         7.1
2  COc1ccc(-n2nc(C(F)(F)F)cc2C(=O)Nc2ccc(-c3ccccc3S(C)(=O)=O)cc2F)c(CN)c1      half-life             h        2.84

Please find the next molecule below.
Name the recorded half-life for "COc1ccc(-n2nc(C(F)(F)F)cc2C(=O)Nc2ccc(-c3ccccc3S(C)(=O)=O)cc2)c(CN)c1" . 6

====

# protocol: in vivo
# measurement_parameters: eutheria
property_name: bioavailability (%)
Kindly answer with a numeric value in %, unit omitted.

Name the recorded bioavailability for "COc1ccc(-n2nc(C)cc2C(=O)Nc2ccc(-c3ccccc3S(N)(=O)=O)cc2)cc1" . 48
